# Test system: Streptococcus pneumoniae
# assay.info: MIC, CLSI broth microdilution, clinical isolates
# Type: cell-based
# condition: Streptococcus pneumoniae (PSSP, N = 31)
MIC90 listing for selected molecules.
The reply should be a number in µg/mL, with the unit left off.

Previously resolved entries follow.
molecule: COc1c(N2CCNC(C)C2)c(F)cc2c(=O)c(C(=O)O)cn(C3CC3)c12 (centres unmarked) [Gatifloxacin]
target: Streptococcus pneumoniae
reported.endpoint: MIC90
u: µg/mL
reported.measurement: 0.25
//
molecule: C[C@H]1COc2c(N3CCN(C)CC3)c(F)cc3c(=O)c(C(=O)O)cn1c23 [Levofloxacin]
target: Streptococcus pneumoniae
reported.endpoint: MIC90
u: µg/mL
reported.measurement: 1
//
molecule: N[C@@H]1CCCCN(c2c(F)cc3c(=O)c(C(=O)O)cn(C4CC4)c3c2Cl)C1 [Besifloxacin]
target: Streptococcus pneumoniae
reported.endpoint: MIC90
u: µg/mL
reported.measurement: 0.06

Look at this molecule and give its reported MIC90. NC[C@H]1O[C@H](O[C@H]2[C@H](O)[C@@H](O[C@H]3O[C@H](CO)[C@@H](O)[C@H](N)[C@H]3O)[C@H](N)C[C@@H]2N)[C@H](N)C[C@@H]1O [Tobramycin] 32

* * *

# Test system: Staphylococcus aureus
# assay.info: MIC, CLSI broth microdilution, clinical isolates
# Format: cell-based
# condition: Staphylococcus aureus, Staphylococcus aureus (CS, N = 14)
Recorded MIC90 values for a group of compounds are listed next.

compound: NC[C@H]1O[C@H](O[C@H]2[C@H](O)[C@@H](O[C@H]3O[C@H](CO)[C@@H](O)[C@H](N)[C@H]3O)[C@H](N)C[C@@H]2N)[C@H](N)C[C@@H]1O
MIC90: 1 µg/mL
--
compound: C[C@H]1COc2c(N3CCN(C)CC3)c(F)cc3c(=O)c(C(=O)O)cn1c23
MIC90: 0.25 µg/mL

Find the recorded MIC90 belonging to "N[C@@H]1CCCCN(c2c(F)cc3c(=O)c(C(=O)O)cn(C4CC4)c3c2Cl)C1" and report it. 0.12 µg/mL

Fill blank: measured MIC90 of the compound "CC[C@H]1OC(=O)[C@H](C)[C@@H](O[C@H]2C[C@@](C)(OC)[C@@H](O)[C@H](C)O2)[C@H](C)[C@@H](O[C@@H]2O[C@H](C)C[C@H](N(C)C)[C@H]2O)[C@](C)(O)C[C@@H](C)CN(C)[C@H](C)[C@@H](O)[C@]1(C)O" is ____. > 8 µg/mL

Returns the measured MIC90 for the input compound. Input: "Cc1onc(-c2ccccc2)c1C(=O)N[C@@H]1C(=O)N2[C@@H]1SC(C)(C)[C@@H]2C(=O)O" > 8 µg/mL

For the compound shown here, COc1c(N2CCNC(C)C2)c(F)cc2c(=O)c(C(=O)O)cn(C3CC3)c12 (stereo not drawn) , give the reported MIC90. 0.25 µg/mL

* * *

MIC Range values by entry
# Tested on: Staphylococcus aureus
# assay.info: MIC, CLSI broth microdilution, clinical isolates
# Type: cell-based
# condition: Staphylococcus aureus (CS, N = 14)

compound: N[C@@H]1CCCCN(c2c(F)cc3c(=O)c(C(=O)O)cn(C4CC4)c3c2Cl)C1
MIC Range: 0.015 to 0.25 µg/mL
--
compound: COc1c(N2CCNC(C)C2)c(F)cc2c(=O)c(C(=O)O)cn(C3CC3)c12 (stereo not shown)
MIC Range: 0.03 to 1 µg/mL
--
compound: NC[C@H]1O[C@H](O[C@H]2[C@H](O)[C@@H](O[C@H]3O[C@H](CO)[C@@H](O)[C@H](N)[C@H]3O)[C@H](N)C[C@@H]2N)[C@H](N)C[C@@H]1O
MIC Range: 0.12 to 8 µg/mL

Pending compound:
Fill in the blank: the reported MIC Range of "C[C@H]1COc2c(N3CCN(C)CC3)c(F)cc3c(=O)c(C(=O)O)cn1c23" is ____. 0.06 to 2 µg/mL

* * *

# Test system: Staphylococcus epidermidis
# assay.info: MIC, CLSI broth microdilution, clinical isolates
# Format: cell-based
# condition: Staphylococcus epidermidis (CNS, N = 6)
reported.endpoint: % S
Number first, unit second: that is the form wanted.

Some solved entries appear below for comparison.
compound: Cc1onc(-c2ccccc2)c1C(=O)N[C@@H]1C(=O)N2[C@@H]1SC(C)(C)[C@@H]2C(=O)O
% S: 50.0%
//
compound: NC[C@H]1O[C@H](O[C@H]2[C@H](O)[C@@H](O[C@H]3O[C@H](CO)[C@@H](O)[C@H](N)[C@H]3O)[C@H](N)C[C@@H]2N)[C@H](N)C[C@@H]1O
% S: 83.3%

Query: % S; subject: "C[C@H]1COc2c(N3CCN(C)CC3)c(F)cc3c(=O)c(C(=O)O)cn1c23" 0.0%

For the compound shown here, COc1c(N2CCNC(C)C2)c(F)cc2c(=O)c(C(=O)O)cn(C3CC3)c12 (centres unmarked) , give the reported % S. 50.0%

Would you kindly share the measured % S for "CC[C@H]1OC(=O)[C@H](C)[C@@H](O[C@H]2C[C@@](C)(OC)[C@@H](O)[C@H](C)O2)[C@H](C)[C@@H](O[C@@H]2O[C@H](C)C[C@H](N(C)C)[C@H]2O)[C@](C)(O)C[C@@H](C)CN(C)[C@H](C)[C@@H](O)[C@]1(C)O" ? 16.7%

* * *

# assay.info: Study 424: tear fluid pharmacokinetics after single topical ocular instillation in healthy volunteers
# Format: in vivo, human
# condition: both sexes, human, tear fluid, topical, 37 μL of 0.6% suspension per eye, tears, single instillation 0.6% suspension, healthy volunteers, FAS
reported.endpoint: Cmax

Returns the measured Cmax for the input compound. Input: N[C@@H]1CCCCN(c2c(F)cc3c(=O)c(C(=O)O)cn(C4CC4)c3c2Cl)C1 [Besifloxacin] 610000 ng/g

* * *

# System: Anaerobic Bacteria
# assay.info: MIC against anaerobic bacteria (Table 7)
# Type: cell-based
# condition: Fusobacterium spp. (N = 21); read-out: MIC50
reported.endpoint: MIC50 (mg/L)
Give just the numeric value; mg/L need not be written.

Use the examples below as a reference point.
compound: COc1c(N2CCNC(C)C2)c(F)cc2c(=O)c(C(=O)O)cn(C3CC3)c12 (stereo not shown) [Gatifloxacin]
u: mg/L
reported.measurement: 1

compound: CCC[C@@H]1C[C@@H](C(=O)N[C@@H]([C@H]2O[C@H](SC)[C@H](O)[C@@H](O)[C@H]2O)[C@H](C)Cl)N(C)C1 [Clindamycin]
u: mg/L
reported.measurement: 0.06

Recorded MIC50 of Cc1ncc([N+](=O)[O-])n1CCO [Metronidazole] , please. 0.25

I am curious: what MIC50 value has been reported for N[C@@H]1CCCCN(c2c(F)cc3c(=O)c(C(=O)O)cn(C4CC4)c3c2Cl)C1 [Besifloxacin] ? 0.25

* * *

# Tested on: CDC coryneform group G
# assay.info: MIC of clinical trial isolates, Studies 373, 433, 434
# Format: cell-based
# condition: N 29
reported.endpoint: MIC50 (µg/mL)
Enter your answer as a number in µg/mL; do not include the unit.

Below, each entry is followed by its recorded MIC50 result.
compound: C[C@H]1COc2c(N3CCN(C)CC3)c(F)cc3c(=O)c(C(=O)O)cn1c23 [LEVO]
u: µg/mL
reported.measurement: 0.06
--
compound: N[C@@H]1CCCCN(c2c(F)cc3c(=O)c(C(=O)O)cn(C4CC4)c3c2Cl)C1 [BESI]
u: µg/mL
reported.measurement: 0.015
--
compound: COc1c(N2CCNC(C)C2)c(F)cc2c(=O)c(C(=O)O)cn(C3CC3)c12 (stereo not shown) [GATI]
u: µg/mL
reported.measurement: 0.06

Read the next record carefully.
Give CDC coryneform group G MIC50 for CC1COc2c(N3CCN(C)CC3)c(F)cc3c(=O)c(C(=O)O)cn1c23 (stereo not shown) [OFLOX] 0.125

* * *

# Tested on: H. influenzae
# assay.info: MIC of clinical trial isolates, Studies 373, 433, 434
# Type: cell-based
# condition: Haemophilus influenzae, all phenotypes, N 344
reported.endpoint: MIC50 (µg/mL)
The response must be a number in µg/mL with no trailing unit.

// solved cases for MIC50 follow
compound: N[C@@H]1CCCCN(c2c(F)cc3c(=O)c(C(=O)O)cn(C4CC4)c3c2Cl)C1
reported.endpoint: MIC50
reported.measurement: 0.03

compound: C[C@H]1COc2c(N3CCN(C)CC3)c(F)cc3c(=O)c(C(=O)O)cn1c23
reported.endpoint: MIC50
reported.measurement: 0.03

compound: CC1COc2c(N3CCN(C)CC3)c(F)cc3c(=O)c(C(=O)O)cn1c23 (centres unmarked)
reported.endpoint: MIC50
reported.measurement: 0.03

compound: CC[C@H]1OC(=O)[C@H](C)[C@@H](O[C@H]2C[C@@](C)(OC)[C@@H](O)[C@H](C)O2)[C@H](C)[C@@H](O[C@@H]2O[C@H](C)C[C@H](N(C)C)[C@H]2O)[C@](C)(O)C[C@@H](C)CN(C)[C@H](C)[C@@H](O)[C@]1(C)O
reported.endpoint: MIC50
reported.measurement: 2

Proceeding to the next compound to report its MIC50.
Looking for the measured MIC50 of COc1c(N2CCNC(C)C2)c(F)cc2c(=O)c(C(=O)O)cn(C3CC3)c12 (centres unmarked) , can you help? 0.015
